test system: SK-MEL-28; experiment: NCI tumour cell line growth inhibition, 48 h
Calls of active or inactive are those of the source. No stated cut-off is given here; in the data, active = GI50 up to about 1.1 µM and inactive = higher.

{"Compound": "CC(C)CC12CC3CCC(CNC1=O)C32C (stereo not given)", "Assay System": "SK-MEL-28", "GI50": "> 100 µM (inactive)"}
{"Compound": "Cc1ccc(NC(=O)c2cc3ccccc3c(/N=N\\c3ccccc3O)c2O)c(C)c1", "Assay System": "SK-MEL-28", "GI50": "5.09 µM (inactive)"}
{"Compound": "COc1ccc2c(c1)CCN=C2Cc1cc(OC)c(OC)cc1CCCl", "Assay System": "SK-MEL-28", "GI50": "66.2 µM (inactive)"}
{"Compound": "Cc1ccc(Nc2n[nH]c(NS(=O)(=O)c3cc(C(=O)Nc4ccc(Cl)cc4)c(Cl)cc3S)n2)cc1", "Assay System": "SK-MEL-28", "GI50": "> 100 µM (inactive)"}
{"Compound": "CC(C)(C)OC(=O)N[C@H]1CC(=O)c2ccccc2N(CC(=O)O)C1=O", "Assay System": "SK-MEL-28", "GI50": "> 100 µM (inactive)"}
{"Compound": "Cc1cc(N2CCOCC2)nc2ccc(Cc3ccc4nc(N5CCOCC5)cc(C)c4c3)cc12", "Assay System": "SK-MEL-28", "GI50": "39.4 µM (inactive)"}
{"Compound": "O=C(NCCNCCNC(=O)C(F)(F)F)C(F)(F)F", "Assay System": "SK-MEL-28", "GI50": "> 100 µM (inactive)"}
{"Compound": "COc1cc(OCc2ccc3nc(OC)c(OC)nc3c2)cc(OC)c1OC", "Assay System": "SK-MEL-28", "GI50": "> 10 µM (inactive)"}
{"Compound": "CN(C)CCn1c(=O)nc2c3c(c([N+](=O)[O-])ccc31)Nc1ccc(O)cc1-2", "Assay System": "SK-MEL-28", "GI50": "14.8 µM (inactive)"}
{"Compound": "O=C(Nc1ccccc1[N+](=O)[O-])/C(=N/Nc1cccc(Cl)c1)c1c(O)c2ccccc2oc1=O", "Assay System": "SK-MEL-28", "GI50": "> 100 µM (inactive)"}

###

system: RPMI-8226; test: NCI tumour cell line growth inhibition, 48 h
Activity calls are given as the source filed them. Rule as the data show it: active = GI50 up to about 1.1 µM and inactive = higher. Where a SMILES comes first, the peptide text is derived from it. [ ]: non-standard residue; d: D form. The star is where a group is joined. Phe(2-OMe) = COc1ccccc1C[CH](N)C(=O)O; Cbz = O=C(OCc1ccccc1)*; OBn = c1ccc(CO*)cc1
Outcomes: active, inactive

{"Compound": "CC(C)(C)c1cc(C(O)(C(F)(F)F)C(F)(F)F)c2c(c1)C(C(F)(F)F)(C(F)(F)F)OC(C(C)(C)C)N2 (stereo not drawn)", "Group Label": "inactive"}
{"Compound": "OCC(CCc1ccccc1I)C1=CCC2(CC1)OCCO2 (stereo not drawn)", "Group Label": "inactive"}
{"Compound": "NC(=O)c1csc(C2CCC(CO)O2)n1 (stereo not drawn)", "Group Label": "inactive"}
{"Compound": "COC(=O)C(Cc1ccccc1OC)NC(=O)C(CC(=O)OCc1ccccc1)NC(=O)OCc1ccccc1 (stereo not drawn) (Cbz-Asp(OBn)-[Phe(2-OMe)]-OMe; configuration not given here)", "Group Label": "inactive"}
{"Compound": "Cc1ccc(-c2cc(-c3ccco3)c(C#N)c(=O)n2C2OC(CO)C(O)C(O)C2O)cc1 (stereo not drawn)", "Group Label": "inactive"}
{"Compound": "N#CC(NCCc1ccccc1)c1ccccc1 (stereo not drawn)", "Group Label": "inactive"}
{"Compound": "O=C1C=CC2=[N+]([O-])C(c3ccccc3)(c3ccccc3)/C(=N\\c3ccccc3)C2=C1", "Group Label": "inactive"}
{"Compound": "COc1ccc2c(c1)C(N)CC2=O (stereo not drawn)", "Group Label": "inactive"}
{"Compound": "O=C(Cn1c2ccc(Br)cc2c2nc3ccccc3nc21)NC1CCCCC1", "Group Label": "inactive"}
{"Compound": "Cn1c2c(c3ccccc31)CCN(CCN1CCN(c3ccccc3)CC1)C2=O", "Group Label": "inactive"}
{"Compound": "c1ccc(N/N=N/c2ccc(-c3nc4ccccc4[nH]3)cc2)nc1", "Group Label": "inactive"}
{"Compound": "CCOC(=O)c1ccc(N(CCOS(=O)(=O)c2ccc(C)cc2)CCOS(=O)(=O)c2ccc(C)cc2)cc1", "Group Label": "inactive"}
{"Compound": "N#Cc1c(-c2ccc(Cl)cc2Cl)nc2[nH]nc(S)n2c1=O", "Group Label": "inactive"}
{"Compound": "O=C(CSc1nc(-c2ccccc2)c(-c2ccccc2)[nH]1)NNC(=S)Nc1ccccc1", "Group Label": "inactive"}
{"Compound": "CN(C)CCCNc1ccc([N+](=O)[O-])c2nc3ccccc3c(N)c12", "Group Label": "active"}
{"Compound": "CC1OC(OC2C(O)COC(OC3C(C)OC(OC4C(OC(=O)[C@]56CCC(C)(C)C[C@@H]5C5=CCC7[C@@]8(C)C[C@H](O)[C@H](OC9OC(CO)C(O)C(OC%10OC(CO)C(O)C(O)C%10O)C9O)[C@@](C)(CO)[C@@H]8CC[C@@]7(C)[C@]5(C)CC6)OCC(O)C4O)C(O)C3OC3OCC(O)(CO)C3O)C2O)C(O)C(O)C1O (stereo partly drawn)", "Group Label": "inactive"}
{"Compound": "CCN(CC)C(=S)/N=C(\\SC(=S)N(CC)CC)c1ccccc1", "Group Label": "inactive"}
{"Compound": "COc1cc2c(cc1OC)C(=O)N(c1ccc(OCCN3CCCC3)cc1)C2", "Group Label": "inactive"}
{"Compound": "Clc1nc(NCCc2ccccc2)c2ncn(-c3ccccc3)c2n1", "Group Label": "inactive"}
{"Compound": "NCCc1c[nH]c2ccc(OC(=O)C(=O)O)cc12", "Group Label": "inactive"}
{"Compound": "CCOc1ccc(NC(=O)/C(=N\\N)C(C(=O)OC)c2nc3ccc(Cl)cc3nc2O)cc1 (stereo not drawn)", "Group Label": "inactive"}
{"Compound": "CNCCCNC1(c2cc3ccccc3s2)CCCCC1", "Group Label": "inactive"}
{"Compound": "CC1=CC(C)(C)[C@H]2O[C@@]3(O)C[C@]4(C)[C@H]5C[C@@](C(C)C)(O[C@H]4c4ccoc4)O[C@H]4[C@]5(C3)O[C@@]1(O)[C@]24O", "Group Label": "inactive"}
{"Compound": "OCC1C2CCC3(OCCO3)C12 (stereo not drawn)", "Group Label": "inactive"}
{"Compound": "COc1cc2[nH]c3c(c2cc1OC)CCN[C@]31CC[C@]2(CC3c4c(cc(OC)c(O)c42)CCN3C)C[C@H]1OC (stereo partly drawn)", "Group Label": "inactive"}
{"Compound": "Cc1ccc2ccc(O)cc2c1", "Group Label": "inactive"}
{"Compound": "O=C1Cc2c([nH]c3ccc(C(=O)O)cc23)-c2ccccc2N1", "Group Label": "inactive"}
{"Compound": "COc1c(OC)c(OC)c(C(=O)/C=C/c2ccccc2)c(OC)c1OC", "Group Label": "inactive"}
{"Compound": "CC/C(=N\\NS(=O)(=O)c1ccccc1)c1ccccc1", "Group Label": "inactive"}
{"Compound": "COC(=O)c1c(O)ccc2c1c1c(n2Cc2ccccc2OC)C(=O)c2ccccc2C1=O", "Group Label": "inactive"}
{"Compound": "CC(C)CC12CC3CCC(CNC1=O)C32C (stereo not drawn)", "Group Label": "inactive"}
{"Compound": "C[C@@H](NC(=O)c1ccc(CNC(=O)/C=C/c2cccc(Oc3ccccc3)c2)cc1)c1ccccc1", "Group Label": "inactive"}
{"Compound": "CN1CCN(C(=S)N(C)C(=O)c2cccs2)CC1", "Group Label": "inactive"}
{"Compound": "CC[C@]1(Cc2ccc(OC)c(OC)c2)C=[N+]([O-])O[C@H](OC2CCCCC2c2ccccc2)[C@@H]1OC(C)=O (stereo partly drawn)", "Group Label": "inactive"}
{"Compound": "CNC1C(O)CC(OC2C/C=C(\\C)C/C(C)=C/C=C/CCC(C)CNC(=O)/C=C/C=C/C2C)OC1C (stereo not drawn)", "Group Label": "active"}
{"Compound": "COc1nc(NC2OC(COC(C)=O)C(OC(C)=O)C(OC(C)=O)C2OC(C)=O)c2c(OC(C)=O)c(C)c(=O)oc2n1 (stereo not drawn)", "Group Label": "inactive"}
{"Compound": "COc1ccc(/C=C2\\N=C(SC)N(C)C2=O)cc1", "Group Label": "inactive"}
{"Compound": "CCN1CCC(O)(/C=C/c2cccc(C)c2)C(C(=O)/C=C/c2cccc(C)c2)C1 (stereo not drawn)", "Group Label": "inactive"}

###

tested on: UACC-62; experiment: NCI tumour cell line growth inhibition, 48 h
Active and inactive are the calls of the source. No stated cut-off is given here; in the data, active = GI50 up to about 1.1 µM and inactive = higher.

{"Sample Smiles": "COc1cc(C(=O)O[C@@H]2[C@@H](OC(=O)c3cc(OC)c(OC)c(OC)c3)[C@@H](OC)O[C@@H]3CO[C@@H](c4ccccc4)O[C@@H]23)cc(OC)c1OC", "GI50": "> 100 µM (inactive)"}
{"Sample Smiles": "c1cc2c(cc1C(N1CCNCC1)N1CCNCC1)OCO2", "GI50": "> 100 µM (inactive)"}
{"Sample Smiles": "O=C(Cc1c(C(=O)Nc2ccccc2)sc(C(=O)Nc2ccccc2)c1CC(=O)Nc1ccccc1)Nc1ccccc1", "GI50": "> 100 µM (inactive)"}
{"Sample Smiles": "C=C(C)CCN(C(=O)OC(C)(C)C)c1cc(C(C)C)co1", "GI50": "86.9 µM (inactive)"}
{"Sample Smiles": "O=c1[nH]c(C2CCCCC2)nc2c(Cl)cccc12", "GI50": "> 100 µM (inactive)"}
{"Sample Smiles": "O=[N+]([O-])c1ccc(N/N=C/c2ccc(OCCCCCCCCCCCO)cc2)c([N+](=O)[O-])c1", "GI50": "2.32 µM (inactive)"}
{"Sample Smiles": "Cc1cc(C)nc(NS(=O)(=O)c2ccc(NC(=O)c3ccc(Cl)c4c(Nc5ccc(S(=O)(=O)Nc6nc(C)cc(C)n6)cc5)c5ccccc5nc34)cc2)n1", "GI50": "2.04 µM (inactive)"}
{"Sample Smiles": "CCOC(=O)/C=C(/C(=O)OCC)n1ccc(=O)n(Cc2cn(CCCCOC(C)=O)nn2)c1=O", "GI50": "> 100 µM (inactive)"}
